From: a melting point compilation (Tetko et al.; mined from patent text by program, amines drawn as free bases though some values may be those of a salt)

Entries and their measured melting point follow.

[[record]]
compound = "NCc1ccc(OCc2ccccc2)c(O)c1"
result = "122 to 125 °C"


Q) Consider the compound COP(=O)(O)Cc1ccc(O)cc1 and give its measured melting point.
A) 89 to 91 °C

Q) Please look up its melting point: O=C(O)C(Cc1ccccc1)c1ccc([N+](=O)[O-])cc1 (configuration not stated)
A) 163 to 164 °C

Q) What melting point value was documented for this compound, Cc1cn(C)c2c1Nc1ccccc1NC2=O ?
A) 184 °C

Q) # lookup: melting point of CC(C)Cc1ccc(-c2ncccc2S(=O)(=O)Oc2ccc([N+](=O)[O-])cc2)cc1
A) 123 to 124 °C

Q) Endpoint output: melting point of CC(C)CCCC(C)NC(=O)CCC(O)c1ccccc1 (configuration not stated) . Value?
A) 72 to 89 °C

Q) Reported melting point, compound CCc1ccc2c(c1)c(-c1ccccc1Cl)c(NC(=O)Nc1c(C)cccc1C(C)C)c(=O)n2C : ____
A) 198 to 199 °C

Q) Could you tell me which melting point is on file for Fc1cc(OCCBr)ccc1OCc1ccccc1 ?
A) 63 to 65 °C

Q) Requested field: melting point. Item: Cc1c(NC(=O)c2ccc(OCc3ccccc3)cc2F)ccc2cc(CN3CCCC3)cnc12
A) 176 to 177 °C

Q) Please report the recorded melting point for Cc1ccc(Nc2c(F)cccc2C(F)(F)F)c(CC(=O)O)c1 .
A) 155 to 156 °C

Q) # input compound: CCOC(=O)C1=C(C)NC(c2ccc([N+](=O)[O-])cc2)=C(C(=O)OCC)C1c1cccc([N+](=O)[O-])c1 (configuration not stated) ; wanted: its melting point
A) 176 to 177 °C

Q) Please report the recorded melting point for CON=C(C)c1ccc2nnn(Cc3ccc4ncccc4c3)c2n1 .
A) 155 to 157 °C

Q) Which measured melting point value corresponds to COc1ccc(OC)c2c1C[C@@H](O)[C@H](NC(C)C)C2 (relative stereo) ?
A) 144 to 145 °C

Q) Using the record for CCOP(=O)(/C=C/c1cn(-c2ccccc2)nc1OCc1ccc(OCc2nc(-c3ccc(C(=O)O)s3)oc2C)c(OC)c1)OCC , report its melting point.
A) 165 to 166 °C

Q) What does the data say about its melting point? Entry: CNc1c(F)cc2c(=O)c(C(=O)O)cn(-c3ccc(F)c(OC)c3)c2c1Cl
A) 250 to 253 °C

Q) Form field: reported melting point of Clc1ccccc1C1=NCc2nnc(Cc3ccccc3)n2-c2sc3c(c21)CCNC3
A) 192 °C

Q) What measured melting point goes with CC1=NN=C(c2ccc([N+](=O)[O-])cc2)c2ccc(Cl)cc2C1 ?
A) 227 to 228 °C

Q) Returns the measured melting point for the input compound. Input: Cn1ncc(Cl)c(NCCCO)c1=O
A) 65 to 66 °C

Q) What does the record list as melting point for O=C(O)c1cc(OCc2ccccc2)nc(OCc2ccccc2)c1 ?
A) 145 to 147 °C
